system: PPARg homodimer (NR concentration 180 nM); test: PBM binding z-score (relative to random genomic background probes); higher = stronger binding; sequences stand for … in GC…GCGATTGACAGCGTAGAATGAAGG
Decision: PBM binding z-score compared against 2; not below it gives yes, below it gives no.

Query: Could you tell me if the measured PBM binding z-score of `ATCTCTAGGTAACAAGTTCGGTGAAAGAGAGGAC` reaches 2 or more?
Reply: no

Query: Another sequence to look at: `GCCGCTAGGTCAACTGATGGTCAGCTAAAGCTCG`
Reply: no

Query: Thanks! And `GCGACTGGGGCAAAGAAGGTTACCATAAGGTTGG` ?
Reply: no

Query: Now consider `CCTCGGAGGACAGCAGGAGGTCAGAGCTGCCAGA` .
Reply: no

Query: Record: `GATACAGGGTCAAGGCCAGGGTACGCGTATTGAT`
Reply: yes

Query: Next sequence: `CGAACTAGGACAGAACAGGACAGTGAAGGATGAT`
Reply: no

----------
Give PBM binding z-score for every item shown.
tested on: RARa:RXR (NR concentration 270 nM, RXRa partner concentration 90 nM); assay: PBM binding z-score (relative to random genomic background probes); higher = stronger binding; sequences stand for … in GC…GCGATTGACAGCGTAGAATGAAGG
Write the value as a bare number.

Query: Consider the sequence `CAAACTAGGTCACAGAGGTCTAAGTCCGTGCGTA` and give its measured PBM binding z-score.
Reply: 2.8

Query: Likewise for `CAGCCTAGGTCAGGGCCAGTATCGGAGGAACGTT` ?
Reply: 0.761

Query: Again, but for `CCGACTGGGGCAGAAAGTTTACCATACCATCCGG`
Reply: -0.677

Query: Thanks! And `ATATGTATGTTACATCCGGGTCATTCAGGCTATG` ?
Reply: 2.59

Query: Item: `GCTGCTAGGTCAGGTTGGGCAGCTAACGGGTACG`
Reply: 0.335

Query: Continue with `CCTGCTAGGTCATGGTCTGCTAATCTACAGTATG`
Reply: 2.22

Query: Another sequence to look at: `TCTTGTAGATCAACAGTAGGTTAAGAAAGATCGA`
Reply: 0.504

Query: Would you mind doing `CCTATTAGTTGAACATAAGGGCAACCGAAGCTCG` as well?
Reply: 0.973

Query: Moving on to `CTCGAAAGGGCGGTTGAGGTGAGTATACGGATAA`
Reply: 0.395

Query: Then `GCGACTGGGGCCAAGCAGGTTACCATAAGGTTGG` ?
Reply: 0.223

Query: Also check `GCAGATAGGTGAAACGCAGGTAACTCAGGGTGGC`
Reply: 0.347

Query: Also check `CCTCGGAGGACAACAGGAGGTTAGAGCTGCCAGA`
Reply: -0.127

Query: Item: `AGAATGAGGGCACGCTGAGTTGATAGCAGAGTAG`
Reply: 1.18

Query: Can you check `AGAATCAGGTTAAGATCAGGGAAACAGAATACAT` next?
Reply: 0.552

Query: Repeat for the following sequence: `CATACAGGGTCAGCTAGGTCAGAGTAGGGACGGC`
Reply: 4.31

Query: And for `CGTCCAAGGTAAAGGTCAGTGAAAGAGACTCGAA` ?
Reply: 3.83

Query: What about this sequence? `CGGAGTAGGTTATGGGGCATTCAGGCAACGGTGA`
Reply: 0.151

Query: Do the same for `ATCTCTAGGTATAGATAGTTCAGTGAATGCAAAT` please
Reply: 0.453

Query: Lookup `AGAATGAGGGTACCAAAGATCAGGGAAACGCTTG`
Reply: 0.253

Query: Now this one: `CTCGAAACGTCGTGCTCAGGTGAGTATACCAAAC`
Reply: -0.466

Query: Now this one: `TCTAGTTGGTCAAAGGTAACACACTCGAAATGCG`
Reply: 1.93

Query: Try this sequence too: `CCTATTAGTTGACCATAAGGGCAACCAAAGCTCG`
Reply: 1.47

Query: Also `TCTAGTTGGTTAAAGGTCACACACTCGAAATGCG` ?
Reply: 6.06

Query: Moving on to `TCTAGCAGGCCAGAGGGTCACTCCAGAGGTACGG`
Reply: 1.92

Query: // next record `CCTAGCAGGCCAGGGTCACGCAAGCATTTCGCTT`
Reply: 4.99

Query: Would you kindly repeat that for `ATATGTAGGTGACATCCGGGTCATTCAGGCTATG` ?
Reply: 3.62

Query: How about this sequence: `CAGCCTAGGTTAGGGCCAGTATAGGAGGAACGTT`
Reply: -0.399

Query: Here is the next sequence: `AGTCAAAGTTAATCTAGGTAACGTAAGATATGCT`
Reply: 0.155

Query: Try this sequence next: `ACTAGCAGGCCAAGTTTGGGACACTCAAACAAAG`
Reply: -0.143

Query: Another sequence to look at: `ACAGACAGGTGATGAAGGTAACTCACGCTATCAT`
Reply: 0.165

Query: Another: `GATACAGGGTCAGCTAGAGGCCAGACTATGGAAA`
Reply: 4.3

Query: Can you handle `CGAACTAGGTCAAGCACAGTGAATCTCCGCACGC` next?
Reply: 2.31

Query: What about this sequence? `TCATATAGCTAATACAGGTGAAAGTCGGCATCTA`
Reply: 0.626

Query: Can you check `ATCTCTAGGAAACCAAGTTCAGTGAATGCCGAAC` next?
Reply: 0.595

Query: Same for `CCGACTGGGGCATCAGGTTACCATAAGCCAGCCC`
Reply: -0.109

Query: Then this sequence: `CCTGCTGGGTCATGGTCAGCTAATCTACAGTATG`
Reply: 2.02

Query: Now consider `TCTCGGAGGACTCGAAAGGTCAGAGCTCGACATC` and answer again.
Reply: 3.76

Query: And `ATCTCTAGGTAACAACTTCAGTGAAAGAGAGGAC` ?
Reply: 0.537

Query: // same read-out, input: `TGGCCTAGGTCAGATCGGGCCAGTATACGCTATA`
Reply: 0.548

Query: Repeat with `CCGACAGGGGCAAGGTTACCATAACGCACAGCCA`
Reply: 1.26

Query: Also check `TCATATAGGTAAACAGGTGATAGTCCGTAAGTTA`
Reply: 0.892

Query: Next up: `GTACCAAGGTGATTAGGTCGTTGATGAGTAGGCG`
Reply: 0.753

Query: And `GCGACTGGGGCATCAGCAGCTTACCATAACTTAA` ?
Reply: -0.454

Query: Next record, please: `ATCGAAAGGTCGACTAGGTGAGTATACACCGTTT`
Reply: 3.24

Query: Another sequence to look at: `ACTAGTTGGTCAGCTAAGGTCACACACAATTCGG`
Reply: 4.92

Query: Subsequent entry: `TCTGCTAGGTCAATTGGTCAGCTAACGAGCTGCC`
Reply: 1.87

Query: Please answer likewise for `CCAGACAGGTGAGAATGTAACTCAGCCTCGATTA`
Reply: -0.141

Query: Cool, now `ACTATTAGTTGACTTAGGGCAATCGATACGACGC`
Reply: 0.866

Query: Thanks! And `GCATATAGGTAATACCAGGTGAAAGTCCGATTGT` ?
Reply: 1.47

Query: Also `ACAGACAGGTGATGAAGGTATCTCAGGCTATCAT` ?
Reply: -0.241

Query: One more sequence: `CCGAGTAGGTTATGGGGTATTCAGGCAACGGTGA`
Reply: 0.453

----------
test system: THRa homodimer (NR concentration 90 nM); test: PBM binding z-score (relative to random genomic background probes); higher = stronger binding; sequences stand for … in GC…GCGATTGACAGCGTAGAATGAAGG
property_measured: PBM binding z-score
Kindly provide the number alone.

Query: Consider the sequence shown here: `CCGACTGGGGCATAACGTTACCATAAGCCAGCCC` What is its recorded PBM binding z-score?
Reply: -0.431

Query: Note, next up: `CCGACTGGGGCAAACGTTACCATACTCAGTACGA`
Reply: -0.206

Query: Continue with `CCTCGGAGGAAAACAGGAGGTCAGAGCTGCCAGA`
Reply: 0.595

Query: And what about the sequence `ATATGTAGGTTATCAGGTCATTCAGTTTGCGCAT` ?
Reply: 3.81

Query: How about this sequence: `GCTCGGAGGACAAGGTCAGATCTTTGTCCGTAGA`
Reply: 1.58

Query: // repeat for `AGTCAAAGTTCATCTAGGTTACGTAAGATATGCT` and report
Reply: 0.553

Query: Queued: `ATCGAAAGGTCGACGATGTGAGTATACACCGTTT`
Reply: -0.483

Query: Record: `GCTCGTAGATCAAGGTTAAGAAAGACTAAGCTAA`
Reply: -0.631

Query: Please answer likewise for `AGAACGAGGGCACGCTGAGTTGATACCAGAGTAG`
Reply: 0.271

Query: Next: `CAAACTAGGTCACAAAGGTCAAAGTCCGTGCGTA`
Reply: 2.58

Query: Quick one: `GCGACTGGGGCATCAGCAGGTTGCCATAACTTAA`
Reply: -0.582

Query: Note, next up: `AAGACAGGGTCATCGTAGGCCAGAGTACGCACAG`
Reply: 1.12
